- Target desc: Epithelial discoidin domain-containing receptor 1 (Homo sapiens, UniProt Q08345)
- Sequence (Q08345 whole entry, the tested form may be a part): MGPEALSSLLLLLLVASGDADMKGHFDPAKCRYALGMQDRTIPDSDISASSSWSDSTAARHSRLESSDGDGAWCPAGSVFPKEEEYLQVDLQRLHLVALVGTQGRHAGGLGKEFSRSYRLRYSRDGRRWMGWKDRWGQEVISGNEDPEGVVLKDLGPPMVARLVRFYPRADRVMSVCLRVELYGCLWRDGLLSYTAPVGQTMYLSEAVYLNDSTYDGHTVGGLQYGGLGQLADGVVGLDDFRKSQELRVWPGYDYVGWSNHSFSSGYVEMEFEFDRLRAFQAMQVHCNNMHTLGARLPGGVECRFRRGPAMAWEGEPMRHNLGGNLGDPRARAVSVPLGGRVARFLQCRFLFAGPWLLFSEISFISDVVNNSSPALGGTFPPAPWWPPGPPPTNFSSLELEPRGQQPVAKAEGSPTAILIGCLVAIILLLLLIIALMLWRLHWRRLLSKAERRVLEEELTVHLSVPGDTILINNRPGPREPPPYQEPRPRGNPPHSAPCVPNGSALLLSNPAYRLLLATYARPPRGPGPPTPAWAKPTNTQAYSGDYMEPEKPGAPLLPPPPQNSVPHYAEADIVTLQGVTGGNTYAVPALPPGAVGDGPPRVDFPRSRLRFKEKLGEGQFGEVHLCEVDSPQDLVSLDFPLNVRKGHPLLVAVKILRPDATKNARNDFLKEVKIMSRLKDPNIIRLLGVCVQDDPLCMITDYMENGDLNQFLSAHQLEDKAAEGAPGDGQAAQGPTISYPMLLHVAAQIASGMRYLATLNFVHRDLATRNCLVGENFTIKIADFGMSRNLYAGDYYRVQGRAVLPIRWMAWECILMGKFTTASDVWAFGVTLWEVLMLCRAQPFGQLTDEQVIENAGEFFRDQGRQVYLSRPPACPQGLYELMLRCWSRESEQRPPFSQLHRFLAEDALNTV
- Test: Inhibition of DDR1 (unknown origin)
Readout name: IC50 (nM)
Kindly provide the numeric value in nM only, without the unit symbol.

Observed IC50 on Epithelial discoidin domain-containing receptor 1 (Homo sapiens, UniProt Q08345) for O=C(Nc1ccc2c(c1)Oc1ncccc1C(=O)N2c1ccncc1)Nc1ccc(Cl)c(C(F)(F)F)c1 , please.
180
